B1: MGC27345 (parent)
chain: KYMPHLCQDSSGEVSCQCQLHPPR

Variants of: B1
Assay: protein stability index of a GFP-peptide fusion (GPS, HEK-293T) (PSI 1-6); higher = more stable;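 also: lentivirally expressed fusions sorted by FACS into six bins by GFP to DsRed ratio, PSI derived from sequencing read proportions per bin multiplied by bin number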
Details: c terminus: a fixed tail appended
Attribute: protein stability index
readout.name: protein stability index

• KYMPHLCQDSSGEVSCQCQLNPPR = 2.31
• KYMPHLCQDRSGEVSCQCQLHPPR = 1
• KYMPHLCQDSSYEVSCQCQLHPPR = 1.53
• KYMPHLCQDSSGEASCQCQLHPPR = 3.06
• KYMPHNCQDSSGEVSCQCQLHPPR = 1.79
• KYMPHLSQDSSGEVSCQCQLHPPR = 1.47
• KYMPHLCQDSSGEVSCQCTLHPPR = 2.36
• KYMPHLCQDSSGEVSCQCQLHWPR = 2.05
• KYMPHLCQDSSGEVSCQPQLHPPR = 3.55
• KYMPHLGQDSSGEVSCQCQLHPPR = 3.13
• KYMPHLCQDSSGEDSCQCQLHPPR = 2.25
• KYMPDLCQDSSGEVSCQCQLHPPR = 1.66
• KYMPHLCQDSSGEVSCQAQLHPPR = 3.46
• KYMPHLCQDSSGEVSCQCQLPPPR = 3.07
• KYMPHLCQDSSGEVSCQCQLHPPF = 3.39
• KYMPHLCQDSSGEVSVQCQLHPPR = 2.85
• KYMPHLCQDSSGEVSIQCQLHPPR = 1.93
• KYMPHLCQDSSGIVSCQCQLHPPR = 1.99
• KYMPHLCQDSSGEVSCQCQLIPPR = 2.75
• KYMPHLCQDSSGEVCCQCQLHPPR = 2.28
• KYMPHLCQDSSGEVSCQCQLEPPR = 3.34
• KYMPHLCQDESGEVSCQCQLHPPR = 2.57
• KYMPHLCQDSSGEFSCQCQLHPPR = 1.94
• KGMPHLCQDSSGEVSCQCQLHPPR = 2.87
• KYMPHLCQDSSGEVSCQCQLHPPE = 4.59
• KYMPHLCQDSSGEVSCQCQLQPPR = 4.58
• KYMPHLCQDSSGEVSCYCQLHPPR = 1.76
• KYMYHLCQDSSGEVSCQCQLHPPR = 2.15
• KYMPNLCQDSSGEVSCQCQLHPPR = 1.64
• KYMPHECQDSSGEVSCQCQLHPPR = 2.71
• KYMPHLCQDSSGEESCQCQLHPPR = 3.31
• KSMPHLCQDSSGEVSCQCQLHPPR = 2.33
• KYMPHLCQDSSGEVSCQCQLHPPI = 3.75
• YYMPHLCQDSSGEVSCQCQLHPPR = 1.92
• KYMPHLCQDSSGEVSCQCQLHPPV = 3.23
• KYMPHLCQDSSGEVSCQHQLHPPR = 2.94
• KYMPHLCQDSSGEVSCQCNLHPPR = 2.63
• KYMPHLCQDTSGEVSCQCQLHPPR = 1.97
• KYMPHLCQDSSGEVSCQCQLHPPQ = 4.05
• KYMPHLCQDKSGEVSCQCQLHPPR = 2.02
• KYMPHLCQDSKGEVSCQCQLHPPR = 2.28
• KYMPHLCTDSSGEVSCQCQLHPPR = 3.04
• KYMPHLCQDSSGEVSCQCHLHPPR = 1.52
• KYMPHLCQDSCGEVSCQCQLHPPR = 2.5
• HYMPHLCQDSSGEVSCQCQLHPPR = 2.13
• KYMPHLCQDSSGEVSCQCQSHPPR = 2.49
